- PROTOCOL NOTES: Systemic clearance in Sprague-Dawley rat at 2 mg/kg, iv administered as bolus dose
- Type: ADME, organism-based
- Set-up: dose 2 mg/kg, route intravenous
- RUN PARAMETERS: in vivo
Collected clearance values appear next to each entry.
Give a bare numeral; the unit mL/min/kg is implied.

Enquiry: Could you tell me which clearance is on file for O=C(Nc1ccncc1)Nc1ccc(-c2nc(N3CCOCC3)nc(N3[C@H]4COC[C@@H]3[C@H](O)C4)n2)cc1 ?
Return: 107

Enquiry: Could you tell me which clearance is on file for O=C(Nc1ccncc1)Nc1ccc(-c2nc(N3CCOCC3)nc(N3C4CCC3COC4)n2)cc1 [PKI-179] ?
Return: 38.3

Enquiry: Could you tell me which clearance is on file for O=C(Nc1ccncc1)Nc1ccc(-c2nc(N3CCOCC3)nc(N3[C@@H]4COC[C@H]3[C@@H](O)C4)n2)cc1 ?
Return: 123

###

Collected Activity values appear next to each entry.
- EXPERIMENTAL SYSTEM: Phosphatidylinositol 4,5-bisphosphate 3-kinase catalytic subunit alpha isoform (Homo sapiens)
- PROTOCOL NOTES: Binding affinity to PI3K-alpha (unknown origin) by fluorescence polarization assay
The number alone won't do; follow it with the unit.

O=C(Nc1ccncc1)Nc1ccc(-c2nc(N3CCOCC3)nc(N3[C@@H]4COC[C@H]3[C@@H](O)C4)n2)cc1 :: 9 nM
O=C(Nc1ccncc1)Nc1ccc(-c2nc(N3CCOCC3)nc(N3C4COCC3C(O)C4)n2)cc1 (racemic) :: 4 nM
O=C(Nc1ccncc1)Nc1ccc(-c2nc(N3CCOCC3)nc(N3[C@H]4COC[C@@H]3[C@H](O)C4)n2)cc1 :: 4 nM

Consider now this further compound.
Enquiry: Could you tell me which Activity is on file for O=C(Nc1ccncc1)Nc1ccc(-c2nc(N3CCOCC3)nc(N3C4CCC3COC4)n2)cc1 ?
Return: 8 nM
